Measured melting point accompanies every entry in the list below.

Consider the worked cases shown below.
O=C(c1ccccc1)c1ccc(SC(Cl)(Cl)Cl)cc1
62 to 63 °C
NC(=O)c1cc(NCc2ccc(Cl)cc2)c([N+](=O)[O-])cc1[N+](=O)[O-]
207 to 210 °C
CCOC(=O)C(=CNc1ccn(Cc2ccco2)n1)C(=O)c1ccccc1
75 to 77 °C
CCCCCCCCCCCCCCC1COC2(CC(c3ccccc3)NC(c3ccccc3)C2)O1 (stereo not drawn)
63 to 70 °C
COc1ccnc(CSc2nc3cc(OC(F)(F)F)ccc3[nH]2)c1
134 to 135 °C

Record request: melting point value, item CCCC=Cc1c(C(C)C)nc(C(C)C)c(CO)c1-c1ccc(F)cc1F
59 to 62 °C

###

READOUT_LABEL: melting point

Consider the worked cases shown below.
COc1ccccc1CC(=O)N1C[C@@H]2[C@H](F)CCC(c3ccccc3)(c3ccccc3)[C@@H]2C1
205 °C
CCOC(=O)c1cccc(Nc2nccc(-c3cccnc3)n2)c1
197 to 199 °C
CCCc1nc2c(N)nc3cccnc3c2n1CC1(O)CCOC1 (stereo unspecified)
171 to 173 °C
O=C(Oc1cc2ccccc2cn1)c1cc2ccccc2oc1=O
160 to 163 °C
COc1cn(C(C)C)c(=O)o1
108 to 110 °C

Attention now shifts to the item below.
Record request: melting point value, item CCOC(=O)c1ccc(NC(=O)C=CC=C(c2ccc(Cl)cc2)c2ccc(Cl)cc2)cc1
216 to 218 °C

###

Measured melting point accompanies every entry in the list below.
Just the number please, in °C, no unit attached.

O=C(NCCN1CCC2(CC1)C(=O)NCN2c1ccccc1)c1ccc(Cl)cc1
201

Attention now shifts to the item below.
Record request: melting point value, item CN(C)c1cc2c(cc1C(F)(F)F)NC(=O)CC(c1ccnc(C#N)c1)=N2
248

###

Measured melting point accompanies every entry in the list below.

Record request: melting point value, item O=C(NCCSSCCNC(=O)c1ccc(OC(F)(F)F)cc1)c1ccc(OC(F)(F)F)cc1
150 to 151 °C

How about this compound: CCOCCn1c(CN2CCN(CCNc3nc4cnccc4[nH]3)CC2)nc2cccnc21
124 °C

How about this compound: COc1cccc([C@H]2SC[C@@H](C(=O)OC(C)(C)C)N2C(=O)CNC(=O)Nc2cccc(C(=O)O)c2)c1
125 °C

How about this compound: COc1ccc(CC(C(=O)n2ccnc2)C(C)(C)C)cc1 (centres undefined)
89.5 to 91 °C

How about this compound: S=C1Cc2c([nH]c3ccc(Br)cc23)-c2ccccc2N1
> 330 °C

How about this compound: CCOP(=O)(OCC)C(F)c1ccc(NC(=O)CCc2oc(-n3cnc4ccccc43)nc2-c2ccc(Cl)cc2)cc1 (centres undefined)
152 to 155 °C

How about this compound: CNC(=O)[C@H](O)[C@@H](Sc1ccccc1N)c1ccc(OC)cc1
145 to 147 °C

How about this compound: CC1(C)CC(OC(=O)CCCCCCCCC(=O)OC2CC(C)(C)N(CC#N)C(C)(C)C2)CC(C)(C)N1CC#N
91 °C

How about this compound: COC(=O)c1cc(I)cn1C
64 to 65 °C

How about this compound: Cc1ccc2nc(C)c(C3=NNC(=O)CO3)n2c1
313 °C

How about this compound: Cn1nc(-c2cnc3[nH]cc(C(=O)NC4CCCOC4)c3n2)c2ccc(Cl)cc21 (centres undefined)
320 to 323 °C

###

Measured melting point accompanies every entry in the list below.

Consider the worked cases shown below.
O=C(Cc1cccs1)Nc1cc(N2CC(c3ccccc3)OC2=O)ccn1 (stereo not given)
109 to 110 °C
COC(=O)C(C)c1ccc(OCCNC(=O)C2Cc3ccccc3N2S(=O)(=O)c2ccc(-c3cc(C(F)(F)F)ccc3Cl)cc2)cc1 (stereo not given)
55 to 63 °C
CCOc1cc(C(=O)N2CCC(CCN3CCC(C(N)=O)(c4ccccc4)CC3)(c3ccc(OC)c(OC)c3)C2)cc(OCC)c1OCC (stereo not given)
139 to 141 °C
Clc1ncccc1-c1ccccn1
50 °C
COc1ccc(Oc2cccc(Oc3ccc4c(c3)OCO4)c2C(=O)O)cc1
163 to 165 °C
CC(C)(C)C1COC1(Cn1cncn1)c1ccc(F)cc1 (stereo not given)
128 °C
O=C(O)c1ccc(Br)cc1-c1cc(Cl)cc(Cl)c1
182 to 186 °C
COc1cc2c(cc1C(F)(F)F)N(C(=O)Nc1ccc(-c3ccccn3)s1)CC2
205 to 215 °C

Record request: melting point value, item CC(C)(C)OC(=O)N1CCC(c2ccc(N3C[C@H](CO)OC3=O)cc2F)CC1
120 to 122 °C

How about this compound: CCCC(=O)c1cnc2c(OCCCN(C)CCCc3ccccc3)cccc2c1Nc1ccccc1C
79 to 81 °C

How about this compound: CONC(=O)NC1CCCc2ccccc21 (stereo not given)
122 to 125 °C

How about this compound: CCOC(=O)c1ccc2c(Br)cccc2c1
52 to 54 °C

How about this compound: CCN1CCN(CCCOc2cc3ncc(C#N)c(Nc4ccc(Sc5nc(C)c(C)n5CC)c(Cl)c4)c3cc2OC)CC1
229 to 230 °C

How about this compound: N=C(C1=C(O)C(=O)c2ccccc2C1=O)c1ccccc1
258 to 259 °C

How about this compound: Cc1cc2c(C(=O)O)ccc(C(=O)O)c2cc1C
268 to 280 °C

How about this compound: COc1cc(C=CC=C2SC(=O)NC2=O)ccc1OC(C)C
230 to 231 °C

###

Measured melting point accompanies every entry in the list below.

Consider the worked cases shown below.
CCOC(=O)C(Cc1ccc(C(F)(F)F)cc1)C(=O)c1ccc(Oc2ccccc2)cc1 (stereo not given)
67 to 68 °C
CC(C)c1cc(O)nc(-c2ccc(Cl)cc2)n1
164 °C
CN1CC(CNC(=N)NC(=O)c2cncc(Br)c2)CC2c3cccc4c3c(cn4C)CC21 (stereo not given)
140 to 142 °C
CC(Br)C(=O)NC(C)(C)c1ccccc1 (stereo not given)
102 to 103 °C
CC(=O)N1C(=O)OC[C@H]1c1ccccc1
94 °C
CC(=O)Nc1ccn([C@@H]2CC[C@H](OC(C)=O)[C@@H](OC(C)=O)[C@H]2OC(C)=O)c(=O)n1 (racemic)
226 °C
Cc1cccc2c(Cl)cc(C(F)(F)Cl)nc12
46 to 48 °C
COC(=O)c1ccc(NC(C)=O)cc1OC
130 to 132 °C

Record request: melting point value, item CN(Cc1ccc(NC(=O)C2=Cc3cc(-c4cccnc4)ccc3OCC2)cc1)C1CCOCC1
158 to 159 °C

How about this molecule: N#CCCNC(=O)c1cccc(-c2cccc(Oc3cc(Cl)ccc3Cl)n2)c1
149 to 150 °C

###

READOUT_LABEL: melting point

Consider the worked cases shown below.
O=C(Nc1ccc(C(=O)N2Cc3ccccc3Sc3ccccc32)cc1)c1ccc(Cl)cc1Cl
112 to 115 °C
CC(Cl)OC(=O)c1ncc[nH]1 (centres undefined)
50 °C
CNS(=O)(=O)c1ccc(-c2cccc3nc(Nc4cc(OC)c(OC)c(OC)c4)oc23)cc1
260 to 262 °C
NCc1nc2ccccc2o1
46.5 to 47.5 °C
CCN(CC)C(=O)Oc1cc(-c2ccncc2)nc2ccccc12
76 °C
COC(=O)CC=CCC(=O)NCCc1ccccc1
69 to 70 °C

Record request: melting point value, item COc1ccc(NC(=O)CN2C(=O)c3ccccc3C2=O)c(OC)c1COc1cccc2ccc(C)nc12
229 to 231 °C

How about this compound: CC(=O)Oc1cc(C)cc(C(=O)N[C@@H](Cc2ccccc2)[C@H](O)C(=O)O)c1C
220 to 224 °C

How about this compound: Cc1sc(C)c(NC(=S)Nc2c(Cl)cccc2Cl)c1N
143 to 148 °C

###

Measured melting point accompanies every entry in the list below.

Consider the worked cases shown below.
CN(C)C1=NC2=NC3=C(CN(Cc4ccccc4)CC3=O)CN2N1
279 to 281 °C
COc1cc(Nc2nccc(-c3ccc(N4CCN[C@@H](C)C4)nc3)n2)cc(OC)c1OC
139 to 140 °C

Attention now shifts to the item below.
Record request: melting point value, item CC(C)(C)OC(=O)CCNC1(c2ccccc2Cl)C(=O)Nc2ccc(Cl)cc21 (stereo not drawn)
188 °C

###

Measured melting point accompanies every entry in the list below.

Consider the worked cases shown below.
Cc1nc2cc(F)c(C)cc2c(=O)[nH]1
173 to 174 °C
CCCCc1oc2ccccc2c1-c1ncc(-c2ccc3c(Br)c(OCc4ccc(C(=O)OC)cc4)ccc3c2)o1
143 to 145 °C

Record request: melting point value, item O=C1C2=NCCCN2c2ccc(Br)cc21
166 to 168 °C

How about this compound: Cc1csc(N2CCN(Cc3ccc(C(=O)O)cc3)C2=O)n1
222 to 224 °C

How about this compound: CNc1ccnc2c1c(=O)n(C)c(=O)n2C
179 to 180 °C
